So I've got a bunch of compounds here, and I need their Ki values.
# assay.target: Thymidylate synthase (Escherichia coli (strain K12))
# Sequence (P0A884 whole entry): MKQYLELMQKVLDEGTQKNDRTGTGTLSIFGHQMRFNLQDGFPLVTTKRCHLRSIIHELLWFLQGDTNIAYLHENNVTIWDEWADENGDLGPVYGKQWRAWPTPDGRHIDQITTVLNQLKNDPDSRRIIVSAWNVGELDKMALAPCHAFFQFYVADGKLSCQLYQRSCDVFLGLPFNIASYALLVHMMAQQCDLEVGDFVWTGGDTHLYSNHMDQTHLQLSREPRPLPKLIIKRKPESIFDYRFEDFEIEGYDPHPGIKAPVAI
# experiment.notes: Inhibition Assay
The reply should contain only the number, in µM.

Respond only with Ki recorded for CN(C)c1cccc2c(S(=O)(=O)Oc3ccc4c(c3)CN(C(=O)c3ccc([N+](=O)[O-])cc3)[C@H](C(=O)O)C4)cccc12
36

Respond only with Ki recorded for CN(C)c1cccc2c(S(=O)(=O)Oc3ccc4c(c3)CN(S(=O)(=O)c3ccc(C(F)(F)F)cc3[N+](=O)[O-])[C@H](C(=O)O)C4)cccc12
61

Respond only with Ki recorded for CN(C)c1cccc2c(S(=O)(=O)Oc3ccc4c(c3)CN(S(=O)(=O)CC35CCC(C(=O)C3)C5(C)C)[C@H](C(=O)O)C4)cccc12 (stereo partly drawn)
131

The reported numbers originate from BindingDB's records for doi:10.1002/cbic.200700524.
